These entries and their values trace back to patent US20220064248A1.

The entries below are paired with their reported In vitro activity (relative activity to SEQ ID NO: 1, %).
TARGET_DESC: glucagon receptors (Homo sapiens, UniProt P47871)
Sequence (P47871 26-477): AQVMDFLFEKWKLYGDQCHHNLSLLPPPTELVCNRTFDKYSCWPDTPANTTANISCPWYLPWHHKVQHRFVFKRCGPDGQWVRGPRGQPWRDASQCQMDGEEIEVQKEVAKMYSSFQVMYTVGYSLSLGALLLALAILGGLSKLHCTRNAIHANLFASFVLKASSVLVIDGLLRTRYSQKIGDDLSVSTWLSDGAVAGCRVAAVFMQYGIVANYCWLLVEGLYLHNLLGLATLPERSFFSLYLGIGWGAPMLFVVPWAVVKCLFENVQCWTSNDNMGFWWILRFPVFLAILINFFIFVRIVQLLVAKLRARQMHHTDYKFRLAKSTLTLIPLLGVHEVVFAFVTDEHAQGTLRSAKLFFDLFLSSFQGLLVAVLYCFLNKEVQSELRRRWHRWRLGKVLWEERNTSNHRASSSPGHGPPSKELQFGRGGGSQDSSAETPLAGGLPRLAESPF
PROCEDURE_DETAILS: In vitro activity of glucagon analogs relative to native glucagon
Assay type: cell-based
RUN_CONDITIONS: relative to native glucagon (SEQ ID NO: 1)
Bridges are numbered along the chain shown (N, C = ends). Where no end group is shown, it is not given here. [ ]: non-standard residue; d: D form. Aib = CC(C)(N)C(=O)O
Numeric only. Scale: %

Previously resolved entries follow.
RECORD_SEQUENCE	RESULT_NUMBER
YXQGTFTSDYSKYCDERRAKEFVQWLMNT (Y[Aib]QGTFTSDYSKYCDERRAKEFVQWLMNT; lactam 16-20) [SEQ ID NO: 35]	17.7
YXQGTFTSDYSKYLDECRAKEFVQWLMNT (Y[Aib]QGTFTSDYSKYLDECRAKEFVQWLMNT; lactam 16-20) [SEQ ID NO: 20]	299.7
YXQGTFTSDYSKYLDCKRAKEFVQWLMNT (Y[Aib]QGTFTSDYSKYLDCKRAKEFVQWLMNT; lactam 17-21) [SEQ ID NO: 31]	6.3
YXQGTFTSDYSKYLCEKRAKEFVQWLMNT (Y[Aib]QGTFTSDYSKYLCEKRAKEFVQWLMNT; lactam 16-20) [SEQ ID NO: 19]	12.1
HSQGTFTSDYSKYLDCDRAQDFVQWLMNT (glucagon derivative) [SEQ ID NO: 2]	0.6
WXQGTFTSDYSKYLDECRAKDFVQWLMNT (W[Aib]QGTFTSDYSKYLDECRAKDFVQWLMNT; lactam 16-20) [SEQ ID NO: 26]	1.0
YXQGTFTSDYSKYLDEKRAKCFVQWLMNT (Y[Aib]QGTFTSDYSKYLDEKRAKCFVQWLMNT; lactam 16-20) [SEQ ID NO: 25]	46.9
YXQGTFTSDYSKYLDEKCAKEFVQWLMNT [SEQ ID NO: 21] (Y[Aib]QGTFTSDYSKYLDEKCAKEFVQWLMNT; lactam 16-20)	57.8
YXQGTFTSDYSKYLDEKRCKEFVQWLMNT (Y[Aib]QGTFTSDYSKYLDEKRCKEFVQWLMNT; lactam 16-20) [SEQ ID NO: 22]	147.8
YXQGTFCSDYSKYLDERRAKDFVQWLMNT (Y[Aib]QGTFCSDYSKYLDERRAKDFVQWLMNT; lactam 16-20) [SEQ ID NO: 41]	45.2

Note: attention shifts to another entry.
Data request: Which In vitro activity (relative activity to SEQ ID NO: 1, %) value belongs to WXQGTFTSDYSKYCDERRAKEFVQWLMNT (W[Aib]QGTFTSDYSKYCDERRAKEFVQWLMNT; lactam 16-20) [SEQ ID NO: 34] ?
Data returned: 0.2
